- Test system: MCF7
- Assay info: Cytotoxicity assay (cell titer-glo and calcein AM), MCF7
- Setup conditions: read-out: Cytotoxicity IC50, MCF7, CTG, CTG (cell titer-glo) readout, % error in parentheses
Measured quantity: log10 IC50 (log10 of the value in nM)
Use the decimal logarithm of IC50 (nM).

Recorded results for 5 molecules are shown here.
Molecule	log10 IC50
COc1cc2c(c(OC)c1OC)-c1ccc(OC)c(=O)cc1[C@@H](NC(=O)CN(OC)[C@@H]1O[C@H](C(=O)O)[C@H](O)[C@H](O)[C@H]1O)CC2 [Col18, D-Galacturonoside]	3.06
COc1cc2c(c(OC)c1OC)-c1ccc(OC)c(=O)cc1[C@@H](NC(=O)CN(OC)[C@@H]1O[C@H](C)[C@@H](O)[C@H](O)[C@H]1O)CC2 [Col2, 6-deoxy-D-glucoside]	3.69
COc1cc2c(c(OC)c1OC)-c1ccc(OC)c(=O)cc1[C@@H](NC(=O)CN(OC)[C@@H]1O[C@H](CO)[C@@H](O)[C@H](O)[C@H]1F)CC2 [Col34, 2-fluoro-2-deoxy-D-glucoside]	2.38
COc1cc2c(c(OC)c1OC)-c1ccc(OC)c(=O)cc1[C@@H](NC(=O)CN(OC)[C@@H]1OC[C@@H](O)[C@@H](O)[C@H]1O)CC2 [Col5, D-riboside]	3.45
COc1cc2c(c(OC)c1OC)-c1ccc(OC)c(=O)cc1C(NC(=O)CN(OC)C1OC(C)C(O)C(O)C1O)CC2 [Col14, L-fucoside]	3.69

Consider the additional molecule presented here.
**Query** Tell me the measured log10 IC50 of COc1cc2c(c(OC)c1OC)-c1ccc(OC)c(=O)cc1[C@@H](NC(=O)CN(OC)[C@@H]1O[C@H](CO)[C@@H](O[C@H]3O[C@H](CO)[C@@H](O)[C@H](O)[C@H]3O)[C@H](O)[C@H]1O)CC2 [Col38, D-maltoside] , please.
**Result** 2.46

----------
- Tested on: SF-268
- Assay info: Cytotoxicity assay (cell titer-glo and calcein AM), SF-268
- Setup conditions: read-out: Cytotoxicity IC50, SF-268, CTG; SF-268; CTG (cell titer-glo) readout; % error in parentheses
The reader will find reported pIC50 values listed item by item below.
# pIC50: negative log10 of molar concentration; output just the value

Compound	Measured quantity	Val
COc1cc2c(c(OC)c1OC)-c1ccc(OC)c(=O)cc1[C@@H](NC(=O)CN(OC)[C@@H]1OC[C@@H](O)[C@H](O)[C@H]1O)CC2 [Col4, D-xyloside]	pIC50	5.08
CCCCCCCCCC(=O)NC[C@H]1O[C@@H](N(CC(=O)N[C@H]2CCc3cc(OC)c(OC)c(OC)c3-c3ccc(OC)c(=O)cc32)OC)[C@H](O)[C@@H](O)[C@@H]1O [Col59, 6-deoxy-6-N-decanoyl-D-glucosaminoside]	pIC50	5.26
COc1cc2c(c(OC)c1OC)-c1ccc(OC)c(=O)cc1[C@@H](NC(=O)CN(OC)[C@@H]1O[C@H](CO)[C@@H](O[C@H]3O[C@H](CO)[C@@H](O)[C@H](O)[C@H]3O)[C@H](O)[C@H]1O)CC2 [Col38, D-maltoside]	pIC50	6.80
COc1cc2c(c(OC)c1OC)-c1ccc(OC)c(=O)cc1C(NC(=O)CN(OC)C1OCC(O)C(O)C1O)CC2 [Col22, L-riboside]	pIC50	5.38
CCCCCCCCCC(=O)N[C@@H]1[C@@H](O)[C@H](N(CC(=O)N[C@H]2CCc3cc(OC)c(OC)c(OC)c3-c3ccc(OC)c(=O)cc32)OC)O[C@H](CO)[C@H]1O [Col60, 3-deoxy-3-N-decanoyl-D-glucosaminoside]	pIC50	5.30

**Query** Returns the measured pIC50 for the input compound. Input: COc1cc2c(c(OC)c1OC)-c1ccc(OC)c(=O)cc1C(NC(=O)CN(OC)C1OCC(O)C(O)C1O)CC2 [Col25, L-arabinoside]
**Result** 5.17

**Query** Endpoint output: pIC50 of COc1cc2c(c(OC)c1OC)-c1ccc(OC)c(=O)cc1[C@@H](NC(=O)CN(OC)[C@@H]1OC[C@@H](O)[C@@H](O)[C@H]1O)CC2 [Col5, D-riboside] . Value?
**Result** 5.30

**Query** Could you share which pIC50 value was measured for COc1cc2c(c(OC)c1OC)-c1ccc(OC)c(=O)cc1[C@@H](NC(=O)CN(OC)[C@@H]1OC[C@@H](O)[C@H](O)[C@@H]1O)CC2 [Col1, D-lyxoside] ?
**Result** 5.41

**Query** Would you mind telling me what pIC50 value was observed for COc1cc2c(c(OC)c1OC)-c1ccc(OC)c(=O)cc1[C@@H](NC(=O)CN(OC)[C@@H]1O[C@H](C(=O)O)[C@H](O)[C@H](O)[C@H]1O)CC2 [Col18, D-Galacturonoside] ?
**Result** 6.08

**Query** Give the measured pIC50 of "COc1cccc2c1C(=O)c1c(O)c3c(c(O)c1C2=O)C[C@@](O)(C(=O)CO)C[C@@H]3O[C@H]1C[C@H](N)[C@H](O)[C@H](C)O1" .
**Result** 6.60

**Query** Dear colleague, I am looking for the recorded pIC50 of the following compound: COc1cc2c(c(OC)c1OC)-c1ccc(OC)c(=O)cc1C(NC(=O)CN(OC)C1OC(C)C(O)C(O)C1O)CC2 [Col37, L-rhamnoside]
**Result** 5.32

----------
- Test system: ADR-RES
- Assay info: Cytotoxicity assay (cell titer-glo and calcein AM), ADR-RES
- Setup conditions: read-out: Cytotoxicity IC50, NCI/ADR RES, CTG; NCI/ADR RES; CTG (cell titer-glo) readout; % error in parentheses
# Lookup of reported IC50 keyed by entry

**Query** For the compound shown here, COc1cc2c(c(OC)c1OC)-c1ccc(OC)c(=O)cc1[C@@H](NC(=O)CN(OC)[C@@H]1O[C@H](C)[C@H](O)[C@H](O)[C@H]1O)CC2 [Col9, D-fucoside] , give the reported IC50.
**Result** > 10 µM

----------
In this section, each of the compounds is paired with its reported pIC50.
- System: ADR-RES
- Assay info: Cytotoxicity assay (cell titer-glo and calcein AM), ADR-RES
- Setup conditions: read-out: Cytotoxicity IC50, NCI/ADR RES, calcein; NCI/ADR RES; calcein AM readout; % error in parentheses
Entry type: numeric. Quantity: pIC50, the -log10 of concentration in molar units.

Compound	Val
COc1cc2c(c(OC)c1OC)-c1ccc(OC)c(=O)cc1[C@@H](NC(=O)CN(OC)[C@H]1C[C@@H](O)[C@H](O)[C@@H](CO)O1)CC2 [Col16, 2-deoxy-D-glucoside]	6.05

**Query** # query: pIC50 | item COc1cc2c(c(OC)c1OC)-c1ccc(OC)c(=O)cc1[C@@H](NC(=O)CN(OC)[C@@H]1OC[C@@H](O)[C@@H](O)[C@H]1O)CC2 [Col5, D-riboside] | system: ADR-RES
**Result** 5.30

----------
- Test system: Du145
- Assay info: Cytotoxicity assay (cell titer-glo and calcein AM), Du145
- Setup conditions: read-out: Cytotoxicity IC50, Du145, CTG; Du145; CTG (cell titer-glo) readout; % error in parentheses
Each item that follows carries a reported IC50.

Compound	IC50
COc1cc2c(c(OC)c1OC)-c1ccc(OC)c(=O)cc1C(NC(=O)CN(OC)C1OC(C)C(O)C(O)C1O)CC2 [Col14, L-fucoside]	> 10 µM
COc1cc2c(c(OC)c1OC)-c1ccc(OC)c(=O)cc1[C@@H](NC(=O)CN(OC)[C@@H]1OC[C@@H](O)[C@H](O)[C@H]1O)CC2 [Col4, D-xyloside]	> 10 µM

**Query** Quick one: IC50 for COc1cc2c(c(OC)c1OC)-c1ccc(OC)c(=O)cc1[C@@H](NC(=O)CN(OC)[C@@H]1O[C@H](C)[C@@H](O)[C@H](O)[C@H]1O)CC2 [Col2, 6-deoxy-D-glucoside] ?
**Result** > 10 µM

----------
- Test system: Hep3B
- Assay info: Cytotoxicity assay (cell titer-glo and calcein AM), Hep3B
- Setup conditions: read-out: Cytotoxicity IC50, Hep 3B, calcein; Hep 3B; calcein AM readout; % error in parentheses
Measured quantity: pIC50
Note on pIC50: it is the negative log10 of concentration, concentration in mol/L.

Compound	pIC50
COc1cc2c(c(OC)c1OC)-c1ccc(OC)c(=O)cc1[C@@H](NC(=O)CN(OC)[C@@H]1O[C@H](CO)[C@@H](N=[N+]=[N-])[C@H](O)[C@H]1O)CC2 [Col44, 4-deoxy-4-azido-D-glucoside]	6.17

**Query** Notebook: pull reported pIC50 for Hep3B, entry COc1cc2c(c(OC)c1OC)-c1ccc(OC)c(=O)cc1C(NC(=O)CN(OC)C1OCC(O)C(O)C1O)CC2 [Col22, L-riboside]
**Result** 5.40

**Query** For the record "COc1cc2c(c(OC)c1OC)-c1ccc(OC)c(=O)cc1[C@@H](NC(C)=O)CC2" , what value of pIC50 is listed for Hep3B?
**Result** 5.03

**Query** Recorded pIC50 for COc1cc2c(c(OC)c1OC)-c1ccc(OC)c(=O)cc1[C@@H](NC(=O)CN(OC)[C@@H]1O[C@H](CO)[C@@H](O)[C@H](F)[C@H]1O)CC2 [Col33, 3-fluoro-3-deoxy-D-glucoside] with Hep3B, please?
**Result** 5.70

**Query** GET /values?readout=pIC50&system=Hep3B&item= COc1cc2c(c(OC)c1OC)-c1ccc(OC)c(=O)cc1[C@@H](NC(=O)CN(OC)[C@@H]1OC[C@@H](O)[C@H](O)[C@@H]1O)CC2 [Col1, D-lyxoside]
**Result** 5.43
